Reported IC50 values are given for each entry in this list.
# Assay system: Kir1.1 (ROMK1) (Homo sapiens (Human))
# Assay comment: Electrophysiology Assay (whole cell voltage clamp, IonWorks Quattro)
# Format: cell-based
# Experimental parameters: Chinese hamster ovary cells stably expressing Kir1.1; block during voltage step to 0 mV; read-out: Electrophysiology IC50
State just the number; it will be interpreted in nM.

These solved cases illustrate the format of a correct answer.
>>> endpoint_result("O=C1OCc2cc([C@H]3CN4CCN(C(=O)Cc5ccc(-n6cnnn6)cc5)C[C@H]4CO3)ccc21 [Example 7]")
170
>>> endpoint_result("Cc1c([C@H]2CN3CCN(C(=O)C4Cc5ccc(-n6cnnn6)cc5C4)C[C@H]3CO2)ccc(F)c1C#N (stereo partly shown) [Example 74]")
160
>>> endpoint_result("Cc1c([C@H]2CN3CCN(C(=O)C4CCCc5cc(-n6cnnn6)ccc54)C[C@H]3CO2)csc1C#N (single isomer, unassigned) [Example 97]")
280
>>> endpoint_result("Cc1c(C#N)cccc1[C@@H]1CN2CCN(C(=O)Cc3ccc(-n4cnnn4)cc3)C[C@H]2CO1 [Example 42]")
130
>>> endpoint_result("COc1cc(CC(=O)N2CCN3C[C@@H](c4ccc5c(c4C)COC5=O)OC[C@@H]3C2)c(F)cc1C#N [Example 17]")
160
>>> endpoint_result("O=C1OCc2cc([C@@H]3CN4CCN(C(=O)C5CCc6cc(-n7cnnn7)ccc65)C[C@H]4CO3)ccc21 (stereo partly shown) [Example 12]")
250

Any idea what its IC50 is? The compound is N#Cc1cc([C@@H]2CN3CCN(C(=O)C4CCc5cc(-n6cnnn6)ccc54)C[C@H]3CO2)ccc1F (stereo partly shown) [Example 4]
190

Any idea what its IC50 is? The compound is Cc1c([C@H]2CN3CCN(C(=O)C4CCc5cc(-n6cnnn6)ccc54)C[C@H]3CO2)ccc2c1COC2=O (single isomer, unassigned) [Example 81]
260

====

Reported IC50 values are given for each entry in this list.
# Assay system: Kir1.1 (ROMK1) (Homo sapiens (Human), UniProt P48048)
# Sequence (P48048 whole entry): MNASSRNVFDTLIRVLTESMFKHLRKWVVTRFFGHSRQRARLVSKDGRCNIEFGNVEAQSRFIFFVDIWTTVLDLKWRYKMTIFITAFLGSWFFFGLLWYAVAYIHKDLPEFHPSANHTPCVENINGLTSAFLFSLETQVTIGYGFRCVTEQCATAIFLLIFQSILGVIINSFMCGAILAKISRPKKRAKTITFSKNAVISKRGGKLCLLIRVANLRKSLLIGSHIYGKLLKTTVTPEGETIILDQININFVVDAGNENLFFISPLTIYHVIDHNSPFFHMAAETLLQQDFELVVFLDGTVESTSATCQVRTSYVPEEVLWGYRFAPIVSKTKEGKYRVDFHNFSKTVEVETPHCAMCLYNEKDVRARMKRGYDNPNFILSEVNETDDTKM
# Assay comment: Electrophysiology Assay (whole cell voltage clamp, IonWorks Quattro)
# Assay type: cell-based
# Experimental parameters: Chinese hamster ovary cells stably expressing Kir1.1; block during voltage step to 0 mV; read-out: Electrophysiology IC50
State just the number; it will be interpreted in nM.

These solved cases illustrate the format of a correct answer.
>>> endpoint_result("O=C1OCCc2cc([C@@H]3CN4CCN(C(=O)C5CCCc6cc(-n7cnnn7)ccc65)C[C@H]4CO3)ccc21 (single isomer, unassigned)")
260
>>> endpoint_result("Cc1c([C@@H]2CN3CCN(C(=O)C4CCc5cc(-n6cnnn6)ccc54)C[C@H]3CO2)ccc(F)c1C#N (mixture of isomers) [Example 2B]")
150
>>> endpoint_result("COc1cc([C@@H]2CN3CCN(C(=O)C4CCc5cc(-n6cnnn6)ccc54)C[C@H]3CO2)ccc1C#N (some centres unmarked)")
350
>>> endpoint_result("COc1ccc([C@@H]2CN3CCN(C(=O)C4CCc5cc(-n6cnnn6)ccc54)C[C@H]3CO2)c(C)c1C#N (some centres unmarked)")
450
>>> endpoint_result("Cc1c([C@H]2CN3CCN(C(=O)Cc4ccc(-n5cnnn5)cc4)C[C@H]3CO2)ccc2nonc12")
120

Next molecule, IC50 to be filled in.
Any idea what its IC50 is? The molecule is O=C1OCCc2cc([C@@H]3CN4CCN(C(=O)Cc5ccc(-n6cnnn6)cc5)C[C@H]4CO3)ccc21
80

These data points were gathered from patent US9573961B2.
